test system: K-562 leukemia; test: NCI-60 one-dose screen, 48 h (100 = growth as untreated, 0 = no growth, -100 = all killed); conditions: 10 µM unless noted
The panel holds about 83,000 compounds, 20% with a hit somewhere; the sample as a whole holds those more often. The source made the active and inactive calls. The calls were made as follows: active = growth percent below 10; inactive = the rest.
measured-property: growth

INSERT INTO measurements (molecule, measured_property, obs_value) VALUES
  ('CN(C)c1ccc2nc3ccc(=[N+](C)C)c([N+](=O)[O-])c-3sc2c1', 'growth', '23.8% (inactive)');

Asked: # value lookup — system K-562 leukemia, readout growth, item `O=C(N/N=C/[C@H](O)[C@@H](O)[C@@H](O)[C@H](O)CO)c1ccc(NC(=O)c2cccnc2)cc1`
Given back: 110% (inactive)

Asked: Next: `NS(=O)(=O)c1ccc(-n2nc(-c3ccc(Cl)cc3)c3ccccc3c2=O)cc1`
Given back: 84.2% (inactive)

Asked: Next: `C=CCNc1ccc2c3c(cccc13)C(=O)N(N1C(=O)c3cccc4cccc(c34)C1=O)C2=O`
Given back: 103% (inactive)

* * *

tested on: SF-295 CNS; test: NCI-60 one-dose screen, 48 h (100 = growth as untreated, 0 = no growth, -100 = all killed); settings: 10 µM unless noted
The panel holds about 83,000 compounds, 20% with a hit somewhere; the sample as a whole holds those more often. Active and inactive are the calls of the source. Rule for the calls: active = growth percent below 10; inactive = the rest.
measured-property: growth

Answered cases to consult:
INSERT INTO assay_data (molecule, measured_property, obs_value) VALUES
  ('CCCCn1c(-c2ccc(C(=O)O/N=C(\N)c3ccc(OC)cc3)cc2)nc(-c2ccccc2)c1-c1ccccc1', 'growth', '-40.8% (active)'),
  ('COc1ccc(-c2[nH]c3ccc(OC)cc3c2/C=C(\C#N)S(=O)(=O)c2ccccc2)cc1', 'growth', '10.6% (inactive)'),
  ('COc1cc(Nc2nc(NCCN)nc3cc[nH]c(=O)c23)cc(OC)c1', 'growth', '102% (inactive)'),
  ('NCCNc1nc2ccccc2c2c(=O)c3cc(F)ccc3sc12', 'growth', '102% (inactive)'),
  ('O=S(=O)(Nc1ccc(-c2nc(-c3cccc(OCCN4CCOCC4)c3)c(-c3ccnc(Br)c3)[nH]2)cc1)c1ccccc1', 'growth', '2.79% (active)'),
  ('COc1ccc2c(c1)C(C)Cc1c(ncnc1-n1c(C)nc3ccccc31)N2C (centres undefined)', 'growth', '6.04% (active)'),
  ('Cc1cccc(NC2=C(Cl)C(=O)c3nc(C)ccc3C2=O)c1', 'growth', '12.7% (inactive)'),
  ('Cc1c(C(=O)NCCN2CCOCC2)cn2ncnc(Oc3ccc(NC(=O)Nc4ccc(Cl)c(C(F)(F)F)c4)cc3)c12', 'growth', '-29.3% (active)');

// moving on: another record for growth
Asked: Would you mind telling me what growth value was observed for `COc1ccc2[nH]c(-c3ccccc3)c(/C=C(\C#N)S(=O)(=O)c3ccccc3)c2c1` ?
Given back: 43.2% (inactive)

* * *

test system: HCC-2998 colon; assay: NCI-60 one-dose screen, 48 h; conditions: 10 µM unless noted
This is part of a sample that, as a whole, favours compounds with a hit. Of some 83,000 tested, about 20% had one in any assay. Active and inactive are the calls of the source. Rule for the calls: active = growth percent below 10; inactive = the rest.
Thanks in advance; please answer with one of these: active, inactive

Consider the worked cases shown below.
INSERT INTO results (compound, classification) VALUES
  ('NCCCNc1nc2ccccc2c2c(=O)c3cc(C(F)(F)F)ccc3sc12', 'active'),
  ('COC1=C(C)C(=O)c2c(c(CCCl)c3n2CCC3O)C1=O (stereo unspecified)', 'active'),
  ('NS(=O)(=O)c1ccc(-n2nc(-c3ccc(Cl)cc3)c3ccccc3c2=O)cc1', 'inactive');

Asked: Recorded test outcome, item COc1ccc([C@H]2c3cc(OC)c(OC)cc3C=C(C=O)C2CO)cc1OC (stereo partly specified)
Given back: inactive

Asked: Next: `CCCSc1nc2ccc(C)cc2cc1/C=[N+](\[O-])c1ccccc1`
Given back: inactive

Asked: Next: `Cc1ccc2sc3c(NCCN)nc4ccccc4c3c(=O)c2c1`
Given back: active

* * *

system: K-562 leukemia; experiment: NCI-60 one-dose screen, 48 h; details: 10 µM unless noted
This is part of a sample that, as a whole, favours compounds with a hit. Of some 83,000 tested, about 20% had one in any assay. Calls of active or inactive are those of the source. Rule for the calls: active = growth percent below 10; inactive = the rest.
Thanks in advance; please answer with one of these: TRUE = active, FALSE = inactive

Consider the worked cases shown below.
INSERT INTO assay_data (compound, classification) VALUES
  ('CC(C)C(=O)Nc1ccc(-c2nc(-c3cccc(OCCN4CCOCC4)c3)c(-c3ccnc(Br)c3)[nH]2)cc1', 'TRUE'),
  ('CCn1cnc2c1c(=O)[nH]c(=O)n2CC1CCC(CNS(=O)(=O)c2ccc(OC3CCOCC3)c(F)c2)CC1 (centres undefined)', 'FALSE'),
  ('NC1=NC(c2cccc(Br)c2)c2sc3ccc(Cl)cc3c2N1 (centres undefined)', 'FALSE'),
  ('COc1ccc(/C=N/Nc2cc(=O)[nH]c3ccc(C)cc23)cc1', 'FALSE'),
  ('CCc1cccc2c3c(sc12)C(c1ccc(Cl)cc1)C(C#N)=C(N)O3 (centres undefined)', 'TRUE'),
  ('COc1ccc2nc(NCCCNCCO)c3sc4ccc(F)cc4c(=O)c3c2c1', 'TRUE');

Asked: Recorded test outcome, item `O=C(Cc1ccc(F)c(Cl)c1)Nc1cc(C2(C(F)(F)F)CC2)nn1Cc1ccccc1`
Given back: FALSE

Asked: Next: `O=C1c2cccc3cccc(c23)C(=O)N1Nc1nc(NC2CCCCC2)nc(N2CCOCC2)n1`
Given back: FALSE

Asked: Next: `COc1cc(C(=O)c2cc(C)c3[nH]c4ccc(C)cc4c3c2C)cc(OC)c1OC`
Given back: FALSE

* * *

test system: EKVX NSCLC; experiment: NCI-60 one-dose screen, 48 h (100 = growth as untreated, 0 = no growth, -100 = all killed); conditions: 10 µM unless noted
Compounds without any hit were thinned out: in the full panel of roughly 83,000, 20% have a hit.
Measured growth determines class: small value = under 60%, mid value = from 60% up to 80%, large value = 80% and over

Consider the worked cases shown below.
INSERT INTO results (compound, classification) VALUES
  ('CN(C)CCS(=O)(=O)Nc1cc(-c2ccc3ncc(C#N)c(Nc4ccc(F)c(Cl)c4)c3c2)cnc1Cl', 'small value'),
  ('CCOC(=O)C1=C(N)Oc2c(sc3c(CC)cccc23)C1c1ccc(F)cc1 (stereo not given)', 'mid value'),
  ('CC(=O)O.CN1[CH-]N(Cc2ccc(C#N)cc2)c2ccccc21.[Ag+]', 'large value'),
  ('CCCCNC(=O)Oc1ccc(/C(=C(\C)c2ccc(Cl)cc2)c2ccc(OCCN(CC)CC)cc2)cc1', 'mid value'),
  ('COc1ccc(/C=C(/C#N)n2nnc3cccc(F)c32)cc1', 'small value'),
  ('CN1C(=O)CNC(=O)[C@H](NC(=O)c2nc3ccccc3cc2O)CSSC[C@H]1C(=O)NCCc1nc2ccccc2cc1O', 'mid value');

Asked: Which category does the recorded growth put `Cc1nc(/N=C(\N)NC(=O)Nc2cccc(Cl)c2)sc1C` in?
Given back: mid value

Asked: Next: CCN1C(=O)N(CC)C2Nn3c(s/c(=C\c4ccc([N+](=O)[O-])cc4)c3=O)=NC21 (stereo not given)
Given back: mid value

Asked: Next: Cc1cccc2c3c(sc12)C(c1ccc(F)cc1)C(C#N)=C(N)O3 (stereo not given)
Given back: small value

Asked: Next: `O=C(Cc1ccc(F)c(Cl)c1)Nc1cc(C2(C(F)(F)F)CC2)nn1Cc1ccccc1`
Given back: mid value

Asked: Next: `N#Cc1c(-c2ccc(Cl)cc2)nc(NCCO)[nH]c1=O`
Given back: large value

* * *

growth values, listed per item
test system: OVCAR-5 ovarian; assay: NCI-60 one-dose screen, 48 h (100 = growth as untreated, 0 = no growth, -100 = all killed); details: 10 µM unless noted
About 83,000 compounds went through this panel and 20% of them were active in at least one assay; those are over-represented in the sample as a whole.
Report the figure in % without appending any unit label.

Answered cases to consult:
INSERT INTO results (compound, experimental_system, obs_value) VALUES
  ('CCOC(=O)c1cn2ncnc(Oc3ccc(NC(=O)NCCN4CCN(C)CC4)c(Cl)c3)c2c1C', 'OVCAR-5 ovarian', 97.1),
  ('O=C1c2cccc3cccc(c23)C(=O)N1Nc1nc(N2CCOCC2)nc(N2CCN(c3ccccc3)CC2)n1', 'OVCAR-5 ovarian', 83.8),
  ('O=C1c2cccc3cccc(c23)C(=O)N1N1C(=O)c2cccc3c(NC4CCCCC4)ccc(c23)C1=O', 'OVCAR-5 ovarian', 90.6),
  ('CCN1C(=O)N(CC)C2Nn3c(s/c(=C4\C(=O)N(CC(C)C)c5ccccc54)c3=O)=NC21 (stereo not given)', 'OVCAR-5 ovarian', 52.5);

Asked: Would you mind telling me what growth value was observed for `NC(=O)C1(Nc2ccc(Br)cc2)CCCC1` ?
Given back: 96.7
